Origin of the recorded values: PubChem BioAssay AID1159580

# protocolDescription: chemical genetic growth profiling, strain panel (AID 1159580);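 also: tested at 20 µM; growth read once vehicle control cultures reached saturation at 30 °C; 1 = growth at the plate median or of vehicle wells; lower values mean less growth of the strain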
# conditionDetails: S. cerevisiae deletion strains, growth OD, locus YPL078C, strain atp4
The whole screen tested about 5,500 compounds, of which about 2,000 (36%) were called active. About 18% were inconclusive and are not listed. Rule as the data show it: active = normalized growth mostly below about 0.91 (no sharp cut-off); inconclusive = no clear call, values can overlap the other calls; inactive = mostly above about 0.92. The list shows a part of the results.
Pick one: active, inactive

Query block: Just curious, what result did C[C@]12CCC(=O)C=C1CCC1C2[C@@H](O)C[C@@]2(C)C1CC[C@]2(O)C(=O)CO (stereo partly specified) get here?
Result block: inactive

Query block: For C#C[C@]1(O)CCC2C3CCC4=CC(=O)CC[C@@H]4C3CC[C@@]21C (stereo partly specified) , which call appears in the assay record?
Result block: inactive

Query block: Call for entry CC(CC(=O)C(O)C(C)(C)O)C1C(=O)CC2(C)C3=CCC4C(C)(C)C(OC5OCC(O)C(O)C5O)CCC45CC35C(O)CC12C (stereo unspecified) :
Result block: inactive

Query block: Kindly provide the recorded test outcome for the following molecule: CC(=O)O[C@H]1CC[C@@]2(C)C(CC[C@]3(C)C2CC=C2C4CC(C)(C)CC[C@]4(C)CC[C@]23C)C1(C)C (stereo partly specified)
Result block: inactive

Query block: Hi, do you know how CCC(C)C(=O)O[C@H]1[C@H](O)C2C(CN3CC(C)CCC3[C@@]2(C)O)C2C[C@]34O[C@]5(O)C(OC(=O)C(C)(O)CC)CC[C@@]3(C)C5C(OC(C)=O)[C@@H](OC(C)=O)C4[C@@]21O (stereo partly specified) came out in this test?
Result block: inactive

Query block: Tell me the assay call for C[C@@H]1OC(O[C@H]2C(O[C@H]3CC[C@@]4(C)C(CC[C@]5(C)C4CC=C4C6CC(C)(C)CC[C@]6(C(=O)O)CC[C@]45C)[C@]3(C)CO)OC[C@H](O)[C@@H]2O)[C@H](O)[C@H](O)[C@H]1O (stereo partly specified) please.
Result block: active

---

# protocolDescription: chemical genetic growth profiling, strain panel (AID 1159580);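 also: tested at 20 µM; growth read once vehicle control cultures reached saturation at 30 °C; 1 = growth at the plate median or of vehicle wells; lower values mean less growth of the strain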
# conditionDetails: S. cerevisiae deletion strains, growth OD, locus YBR279W, strain paf1, active compounds read low
Hit rate of the full screen: of about 5,500 compounds, about 2,000 (36%) were called active. Another 18% or so got no clear call; they are omitted. The list shows a part of the results.
propertyName: normalized growth
Lab note: record just the number, no unit beside it.

Sample records with normalized growth:
[
  {
    "compound": "COc1cccc2c1C(=O)c1c(O)c3c(c(O)c1C2=O)C[C@@](O)(C(C)=O)C[C@@H]3O[C@H]1C[C@H](N)[C@H](O)[C@H](C)O1",
    "propertyName": "normalized growth",
    "testResult": 0.968
  },
  {
    "compound": "COc1cccc2c1C(=O)c1c(O)c3c(c(O)c1C2=O)C[C@@](O)(C(=O)CO)C[C@@H]3OC1C[C@H](N)[C@H](O)[C@H](C)O1 (some centres undefined)",
    "propertyName": "normalized growth",
    "testResult": 0.681
  }
]

Query block: Sample CCOP(=S)(OCC)Oc1nc(Cl)c(Cl)cc1Cl — what was its normalized growth?
Result block: 0.98

Query block: Give the measured normalized growth of COC(=O)C[C@H]1C(C)(C)C2(O)OC34CC2C(=O)[C@]1(C)C3CC[C@]1(C)C4=CC(=O)O[C@H]1c1ccoc1 (some centres undefined) .
Result block: 0.998

Query block: Item under review: COc1cccc2c1C(=O)c1c(O)c3c(c(O)c1C2=O)C[C@@](O)(C(=O)CO)C[C@@H]3O[C@H]1C[C@H](N)[C@@H](O)[C@H](C)O1 . Reported normalized growth?
Result block: 0.958

Query block: Fill blank: measured normalized growth of the compound CCCCCCCCCCCC[C@H](C(=O)O)[C@@H](C)C(=O)O is ____.
Result block: 0.976

Query block: Return reported normalized growth; argument: CC(=O)NC(C(=O)O)C(C)(C)SN=O (centres undefined)
Result block: 0.986

Query block: I'd like to know its normalized growth. The compound in question is CC(C)(Oc1ccc(CCNC(=O)c2ccc(Cl)cc2)cc1)C(=O)O
Result block: 0.972

Query block: Which normalized growth reading was recorded for the compound CNCc1ccccc1 ?
Result block: 1.02
